Test: In vivo pharmacokinetic assay on mouse
Settings: mouse, plasma, po; ICR mice, ig 10 mg/kg
quantity: AUC(0-inf) (ng·h/mL)
Give bare numbers, in ng·h/mL.

Data point: CC#CC(=O)N1[C@@H]2COC[C@@H]2C[C@H]1c1nc(-c2ccc(C(=O)Nc3ccccn3)cc2)c2c(N)nccn12 [Compound I-1] ; AUC(0-inf) = 315

---

Experiment: In vivo pharmacokinetic assay on mouse
Settings: mouse, plasma, po; ICR mice, ig 10 mg/kg
Method: EXPERIMENTAL EXAMPLE 4: IN VIVO PHARMACOKINETIC ASSAY ON MOUSE ICR mice weighing 18-22 g were randomly grouped into 9 mice in each group after being fed for 3-5 days, and administered intragastrically with related compound at a dose of 10 mg/kg, and injected intravenously with the test compound at a dose of 1 mg/kg, respectively. […] Oral and intravenous exposure of the compounds disclosed herein was evaluated by pharmacokinetic experiments in mice and the results are shown in Table 4.
quantity: Cmax
Give the figure together with its unit, number first.

Data point: "CC#CC(=O)N1[C@@H]2COC[C@@H]2C[C@H]1c1nc(-c2ccc(C(=O)Nc3ccccn3)cc2)c2c(N)nccn12" ; Cmax = 92.7 ng/mL

---

Exercise: for every item that follows, state its recorded Mouse (MLM) Remaining % (T = 60 min).
Test: Mouse liver microsome metabolic stability
Format: in vitro ADME
Conditions: mouse liver microsomes
Numbers only, in %.

Record excerpt, results attached:
CC#CC(=O)N1[C@@H]2COC[C@@H]2C[C@H]1c1nc(-c2ccc(C(=O)Nc3cc(C(F)(F)F)ccn3)cc2F)c2c(N)nccn12 | 32
Nc1nccn2c([C@@H]3C[C@H]4COC[C@H]4N3C(=O)C3CC3)nc(-c3ccc(C(=O)Nc4cc(C(F)(F)F)ccn4)cc3F)c12 | 55.7

For the 2 compounds below, give their Mouse (MLM) Remaining % (T = 60 min) values.
1. C=CC(=O)N1[C@@H]2COC[C@@H]2C[C@H]1c1nc(-c2ccc(C(=O)Nc3ccccn3)cc2)c2c(N)nccn12
2. CC#CC(=O)N1[C@@H]2COC[C@@H]2C[C@H]1c1nc(-c2ccc(C(=O)Nc3ccccn3)cc2)c2c(N)nccn12

Data returned:
[89, 90]
